# SYSTEM_UNDER_TEST: Rat NHE-3 (Rattus norvegicus)
# Construct: expressed in transfected cells; host or cells: Opossum kidney (OK) cells (ATCC), transfected by electroporation
# Sequence (P26433 29-831): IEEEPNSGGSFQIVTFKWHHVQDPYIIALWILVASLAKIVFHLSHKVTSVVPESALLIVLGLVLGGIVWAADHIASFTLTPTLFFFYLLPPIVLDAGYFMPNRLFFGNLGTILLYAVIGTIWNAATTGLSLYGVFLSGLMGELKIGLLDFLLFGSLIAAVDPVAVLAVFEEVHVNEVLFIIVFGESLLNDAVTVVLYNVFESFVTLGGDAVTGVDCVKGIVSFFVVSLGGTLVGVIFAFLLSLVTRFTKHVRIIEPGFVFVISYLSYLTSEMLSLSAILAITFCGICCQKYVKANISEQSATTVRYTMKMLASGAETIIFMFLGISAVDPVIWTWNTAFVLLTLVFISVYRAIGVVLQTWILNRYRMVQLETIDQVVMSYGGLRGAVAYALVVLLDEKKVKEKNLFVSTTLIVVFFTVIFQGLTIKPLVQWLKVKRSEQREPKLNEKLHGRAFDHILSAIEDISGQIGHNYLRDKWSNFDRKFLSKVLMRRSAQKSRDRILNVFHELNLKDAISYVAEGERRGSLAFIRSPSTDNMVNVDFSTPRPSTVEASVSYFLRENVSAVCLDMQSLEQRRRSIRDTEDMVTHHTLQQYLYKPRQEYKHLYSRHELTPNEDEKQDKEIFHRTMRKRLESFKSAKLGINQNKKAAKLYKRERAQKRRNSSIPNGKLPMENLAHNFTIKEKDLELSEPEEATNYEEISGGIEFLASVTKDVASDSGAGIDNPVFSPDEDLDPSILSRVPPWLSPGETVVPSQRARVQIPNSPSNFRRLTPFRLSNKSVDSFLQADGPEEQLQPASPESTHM
# ASSAY_INFO: Cell-based assay of NHE-3 activity (rat NHE-3 prompt inhibition)
# TEST_PARAMETERS: OK cells with rat NHE-3 gene, compound present during pH recovery
MEASURED_METRIC: Rat NHE3 pIC50 (prompt)

[[record]]
structure_as_smiles = "CNC(=O)NC(CCC(=O)NCCOCCOCCNS(=O)(=O)c1cccc([C@@H]2CN(C)Cc3c(Cl)cc(Cl)cc32)c1)(CCC(=O)NCCOCCOCCNS(=O)(=O)c1cccc([C@@H]2CN(C)Cc3c(Cl)cc(Cl)cc32)c1)CCC(=O)NCCOCCOCCNS(=O)(=O)c1cccc([C@@H]2CN(C)Cc3c(Cl)cc(Cl)cc32)c1"
system_under_test = "Rat NHE-3 (Rattus norvegicus)"
result = "B (B NHE3 pIC50 5-7)"

[[record]]
structure_as_smiles = "CN1Cc2c(Cl)cc(Cl)cc2[C@H](c2cccc(S(=O)(=O)NCCOCCOCCOCCNC(=O)CN(CCN(CC(=O)NCCOCCOCCOCCNS(=O)(=O)c3cccc([C@@H]4CN(C)Cc5c(Cl)cc(Cl)cc54)c3)CC(=O)NCCOCCOCCOCCNS(=O)(=O)c3cccc([C@@H]4CN(C)Cc5c(Cl)cc(Cl)cc54)c3)CCN(CC(=O)NCCOCCOCCOCCNS(=O)(=O)c3cccc([C@@H]4CN(C)Cc5c(Cl)cc(Cl)cc54)c3)CC(=O)NCCOCCOCCOCCNS(=O)(=O)c3cccc([C@@H]4CN(C)Cc5c(Cl)cc(Cl)cc54)c3)c2)C1"
system_under_test = "Rat NHE-3 (Rattus norvegicus)"
result = "B (B NHE3 pIC50 5-7)"

[[record]]
structure_as_smiles = "CN1Cc2c(Cl)cc(Cl)cc2[C@H](c2cccc(S(=O)(=O)NCCOCCOCCN(C)C(=O)CCC(CCC(=O)N(C)CCOCCOCCNS(=O)(=O)c3cccc([C@@H]4CN(C)Cc5c(Cl)cc(Cl)cc54)c3)(CCC(=O)N(C)CCOCCOCCNS(=O)(=O)c3cccc([C@@H]4CN(C)Cc5c(Cl)cc(Cl)cc54)c3)NC(=O)COCC(=O)O)c2)C1"
system_under_test = "Rat NHE-3 (Rattus norvegicus)"
result = "C (C NHE3 pIC50 > 7)"

[[record]]
structure_as_smiles = "CN1Cc2c(Cl)cc(Cl)cc2[C@H](c2cccc(S(=O)(=O)NCCOCCOCCNC(=O)NCCCC(N)(CCCNC(=O)NCCOCCOCCNS(=O)(=O)c3cccc([C@@H]4CN(C)Cc5c(Cl)cc(Cl)cc54)c3)CCCNC(=O)NCCOCCOCCNS(=O)(=O)c3cccc([C@@H]4CN(C)Cc5c(Cl)cc(Cl)cc54)c3)c2)C1"
system_under_test = "Rat NHE-3 (Rattus norvegicus)"
result = "B (B NHE3 pIC50 5-7)"

[[record]]
structure_as_smiles = "CN1Cc2c(Cl)cc(Cl)cc2[C@H](c2cccc(S(=O)(=O)NCCOCCOCCNC(=O)NCCN(CCNC(=O)NCCOCCOCCNS(=O)(=O)c3cccc([C@@H]4CN(C)Cc5c(Cl)cc(Cl)cc54)c3)CCNC(=O)NCCOCCOCCNS(=O)(=O)c3cccc([C@@H]4CN(C)Cc5c(Cl)cc(Cl)cc54)c3)c2)C1"
system_under_test = "Rat NHE-3 (Rattus norvegicus)"
result = "B (B NHE3 pIC50 5-7)"

[[record]]
structure_as_smiles = "CN1Cc2c(Cl)cc(Cl)cc2[C@H](c2cccc(S(=O)(=O)NCCOCCOCCNC(=O)CCC(CCC(=O)NCCOCCOCCNS(=O)(=O)c3cccc([C@@H]4CN(C)Cc5c(Cl)cc(Cl)cc54)c3)(CCC(=O)NCCOCCOCCNS(=O)(=O)c3cccc([C@@H]4CN(C)Cc5c(Cl)cc(Cl)cc54)c3)NC(=O)NC(CO)CO)c2)C1"
system_under_test = "Rat NHE-3 (Rattus norvegicus)"
result = "C (C NHE3 pIC50 > 7)"

[[record]]
structure_as_smiles = "CN1Cc2c(Cl)cc(Cl)cc2[C@H](c2cccc(S(=O)(=O)NCCOCCOCCNC(=O)CCC(CCC(=O)NCCOCCOCCNS(=O)(=O)c3cccc([C@@H]4CN(C)Cc5c(Cl)cc(Cl)cc54)c3)(CCC(=O)NCCOCCOCCNS(=O)(=O)c3cccc([C@@H]4CN(C)Cc5c(Cl)cc(Cl)cc54)c3)NC(=O)Cc3nnn[nH]3)c2)C1"
system_under_test = "Rat NHE-3 (Rattus norvegicus)"
result = "B (B NHE3 pIC50 5-7)"

[[record]]
structure_as_smiles = "CN1Cc2c(Cl)cc(Cl)cc2[C@H](c2cccc(S(=O)(=O)NCCOCCOCCOCCNC(=O)CN(CC(=O)NCCOCCOCCOCCNS(=O)(=O)c3cccc([C@@H]4CN(C)Cc5c(Cl)cc(Cl)cc54)c3)[C@@H]3CCCC[C@H]3N(CC(=O)NCCOCCOCCOCCNS(=O)(=O)c3cccc([C@@H]4CN(C)Cc5c(Cl)cc(Cl)cc54)c3)CC(=O)NCCOCCOCCOCCNS(=O)(=O)c3cccc([C@@H]4CN(C)Cc5c(Cl)cc(Cl)cc54)c3)c2)C1"
system_under_test = "Rat NHE-3 (Rattus norvegicus)"
result = "B (B NHE3 pIC50 5-7)"

[[record]]
structure_as_smiles = "CN1Cc2c(Cl)cc(Cl)cc2[C@H](c2cccc(S(=O)(=O)N(C)CCOCCOCCNC(=O)NCCCN(CCCNC(=O)NCCOCCOCCN(C)S(=O)(=O)c3cccc([C@@H]4CN(C)Cc5c(Cl)cc(Cl)cc54)c3)CCCNC(=O)NCCOCCOCCN(C)S(=O)(=O)c3cccc([C@@H]4CN(C)Cc5c(Cl)cc(Cl)cc54)c3)c2)C1"
system_under_test = "Rat NHE-3 (Rattus norvegicus)"
result = "B (B NHE3 pIC50 5-7)"

[[record]]
structure_as_smiles = "CN(C)CC(=O)NC(CCC(=O)N(C)CCOCCOCCNS(=O)(=O)c1cccc([C@@H]2CN(C)Cc3c(Cl)cc(Cl)cc32)c1)(CCC(=O)N(C)CCOCCOCCNS(=O)(=O)c1cccc([C@@H]2CN(C)Cc3c(Cl)cc(Cl)cc32)c1)CCC(=O)N(C)CCOCCOCCNS(=O)(=O)c1cccc([C@@H]2CN(C)Cc3c(Cl)cc(Cl)cc32)c1"
system_under_test = "Rat NHE-3 (Rattus norvegicus)"
result = "C (C NHE3 pIC50 > 7)"

[[record]]
structure_as_smiles = "CCCCCCCCOc1ccc(CNC(CCC(=O)NCCOCCOCCNS(=O)(=O)c2cccc([C@@H]3CN(C)Cc4c(Cl)cc(Cl)cc43)c2)(CCC(=O)NCCOCCOCCNS(=O)(=O)c2cccc([C@@H]3CN(C)Cc4c(Cl)cc(Cl)cc43)c2)CCC(=O)NCCOCCOCCNS(=O)(=O)c2cccc([C@@H]3CN(C)Cc4c(Cl)cc(Cl)cc43)c2)cc1"
system_under_test = "Rat NHE-3 (Rattus norvegicus)"
result = "B (B NHE3 pIC50 5-7)"

[[record]]
structure_as_smiles = "CN1Cc2c(Cl)cc(Cl)cc2[C@H](c2cccc(S(=O)(=O)NCCOCCOCCNC(=O)CCC(CCC(=O)NCCOCCOCCNS(=O)(=O)c3cccc([C@@H]4CN(C)Cc5c(Cl)cc(Cl)cc54)c3)(CCC(=O)NCCOCCOCCNS(=O)(=O)c3cccc([C@@H]4CN(C)Cc5c(Cl)cc(Cl)cc54)c3)NC(=O)NCP(=O)(O)O)c2)C1"
system_under_test = "Rat NHE-3 (Rattus norvegicus)"
result = "C (C NHE3 pIC50 > 7)"


From: patent US10385024B2
